# key: entry, value: IC50
target-or-system: KRas G12C (Homo sapiens, UniProt P01116, G12C)
Sequence (P01116 1-188 isoform P01116-2 G12C): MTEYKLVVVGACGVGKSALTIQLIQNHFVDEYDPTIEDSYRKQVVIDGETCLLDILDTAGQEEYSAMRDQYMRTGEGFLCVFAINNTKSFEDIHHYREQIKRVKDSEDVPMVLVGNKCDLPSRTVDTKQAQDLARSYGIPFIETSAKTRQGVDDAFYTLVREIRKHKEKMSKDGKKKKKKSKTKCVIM
assay: Cellular inhibition of KRas G12C measured by Phospho-ERK in NCI-H358 cells
Format: cell-based
assay-context: pERK(Thr202/Tyr204) normalized with GAPDH, NCI-H358 cells, 3 hours; read-out: IC50
Structures can show the parent of a compound that is named as a salt.

[
  {
    "compound": "C=C(F)C(=O)N1CCN(c2nc(OC[C@@H]3CCCN3CCF)nc3c2CCN(c2cccc4cccc(Cl)c24)C3)C[C@@H]1CC#N",
    "target-or-system": "KRas G12C (Homo sapiens, UniProt P01116, G12C)",
    "IC50": "0.1 to 1000 nM"
  },
  {
    "compound": "C=CC(=O)N1CCN(c2nc(-c3cccc(CN4CCOCC4)c3)nc3c2CCN(c2cc(O)cc4ccccc24)C3)CC1",
    "target-or-system": "KRas G12C (Homo sapiens, UniProt P01116, G12C)",
    "IC50": "> 1000 nM"
  },
  {
    "compound": "C=CC(=O)N1CCN(c2nc(OCCCN3C[C@@H]4C[C@H]3CO4)nc3c2CCN(c2cc(O)cc4ccccc24)C3)CC1CC#N (some centres unmarked)",
    "target-or-system": "KRas G12C (Homo sapiens, UniProt P01116, G12C)",
    "IC50": "0.1 to 1000 nM"
  },
  {
    "compound": "C=C(F)C(=O)N1CCN(c2nc(OC[C@@H]3C[C@H](C)CN3C)nc3c2CCN(c2cccc4cccc(C)c24)C3)C[C@@H]1CC#N",
    "target-or-system": "KRas G12C (Homo sapiens, UniProt P01116, G12C)",
    "IC50": "0.1 to 1000 nM"
  },
  {
    "compound": "C=CC(=O)N1CCN(c2nc(OCCCN3CCOCC3)nc3c2CCN(c2cc(O)cc4ccccc24)C3)C(CO)C1 (centres unmarked)",
    "target-or-system": "KRas G12C (Homo sapiens, UniProt P01116, G12C)",
    "IC50": "> 1000 nM"
  },
  {
    "compound": "C=CC(=O)N1CCN(c2nc(OC[C@@H]3C[C@@H](F)CN3C)nc3c2CCN(c2cccc(C)c2C)C3)C[C@@H]1CC#N",
    "target-or-system": "KRas G12C (Homo sapiens, UniProt P01116, G12C)",
    "IC50": "0.1 to 1000 nM"
  },
  {
    "compound": "C=CC(=O)N1CCN(c2nc(OCC3CCN(CCO)C3)nc3c2CCN(c2cc(O)cc4ccccc24)C3)CC1 (centres unmarked)",
    "target-or-system": "KRas G12C (Homo sapiens, UniProt P01116, G12C)",
    "IC50": "> 1000 nM"
  },
  {
    "compound": "C=CC(=O)N1CCN(c2nc(OC[C@@H]3CCCN3C)nc3c2CCN(c2ccccc2C(F)(F)F)C3)CC1",
    "target-or-system": "KRas G12C (Homo sapiens, UniProt P01116, G12C)",
    "IC50": "> 1000 nM"
  },
  {
    "compound": "C=CC(=O)N1CCN(c2nc(OCCc3ccccn3)nc3c2CCN(c2cc(O)cc4ccccc24)C3)CC1 [Example 126, trifluoroacetate]",
    "target-or-system": "KRas G12C (Homo sapiens, UniProt P01116, G12C)",
    "IC50": "> 1000 nM"
  },
  {
    "compound": "C=CC(=O)N1CCN(c2nc(OC[C@@H]3CCCN3C)nc3c2CCN(c2c(C)c(C)cc4[nH]ncc24)C3)C[C@@H]1CC#N",
    "target-or-system": "KRas G12C (Homo sapiens, UniProt P01116, G12C)",
    "IC50": "0.1 to 1000 nM"
  },
  {
    "compound": "C=CC(=O)N1CCN(c2nc(OCCCO)nc3c2CCN(c2cc(O)cc4ccccc24)C3)CC1",
    "target-or-system": "KRas G12C (Homo sapiens, UniProt P01116, G12C)",
    "IC50": "> 1000 nM"
  },
  {
    "compound": "C=CC(=O)N1CCN(c2nc(OCCCN3CCOCC3)nc3c2CCN(c2c(F)c(O)cc4ccccc24)C3)CC1",
    "target-or-system": "KRas G12C (Homo sapiens, UniProt P01116, G12C)",
    "IC50": "> 1000 nM"
  },
  {
    "compound": "C=CC(=O)N1CCN(c2nc(OCCCN3C[C@@H]4C[C@H]3CO4)nc3c2CCN(c2cc(O)cc4ccccc24)C3)CC1",
    "target-or-system": "KRas G12C (Homo sapiens, UniProt P01116, G12C)",
    "IC50": "0.1 to 1000 nM"
  },
  {
    "compound": "CN1CCC[C@H]1COc1nc2c(c(N3CCN(C(=O)/C=C/CN4CCCCC4)[C@@H](CC#N)C3)n1)CCN(c1cccc3ccccc13)C2",
    "target-or-system": "KRas G12C (Homo sapiens, UniProt P01116, G12C)",
    "IC50": "0.1 to 1000 nM"
  },
  {
    "compound": "C=C(OC)C(=O)N1CCN(c2nc(OC[C@@H]3CCCN3C)nc3c2CCN(c2cccc4cccc(Cl)c24)C3)C[C@@H]1CC#N",
    "target-or-system": "KRas G12C (Homo sapiens, UniProt P01116, G12C)",
    "IC50": "> 1000 nM"
  },
  {
    "compound": "CN1CC[C@@H](COc2nc3c(c(N4CCN(C(=O)/C=C/CF)[C@@H](CC#N)C4)n2)CCN(c2cccc4cccc(Cl)c24)C3)C1",
    "target-or-system": "KRas G12C (Homo sapiens, UniProt P01116, G12C)",
    "IC50": "0.1 to 1000 nM"
  },
  {
    "compound": "C=CC(=O)N1CCN(c2nc(OC[C@@H]3CCCN3C)nc3c2CCN(c2cnccc2C(F)(F)F)C3)CC1CC#N (some centres unmarked)",
    "target-or-system": "KRas G12C (Homo sapiens, UniProt P01116, G12C)",
    "IC50": "0.1 to 1000 nM"
  },
  {
    "compound": "Cc1cccc2cccc(N3CCc4c(nc(OC[C@H]5C[C@@H](F)CN5C)nc4N4CCN(C(=O)/C=C/CO)[C@@H](CC#N)C4)C3)c12",
    "target-or-system": "KRas G12C (Homo sapiens, UniProt P01116, G12C)",
    "IC50": "0.1 to 1000 nM"
  },
  {
    "compound": "COC/C=C/C(=O)N1CCN(c2nc(OC[C@@H]3CCCN3C)nc3c2CCN(c2cccc(C)c2C)C3)C[C@@H]1CC#N",
    "target-or-system": "KRas G12C (Homo sapiens, UniProt P01116, G12C)",
    "IC50": "0.1 to 1000 nM"
  },
  {
    "compound": "C=CC(=O)N1CCN(c2nc(OC[C@@H]3CCCN3C)nc3c2CCN(c2cc(OC)cc4ccccc24)C3)C[C@@H]1CC#N",
    "target-or-system": "KRas G12C (Homo sapiens, UniProt P01116, G12C)",
    "IC50": "0.1 to 1000 nM"
  },
  {
    "compound": "Cc1cccc2cccc(N3CCc4c(nc(OC[C@@H]5CCCN5C)nc4N4CCN(C(=O)/C=C/CF)[C@@H](CC#N)C4)C3)c12",
    "target-or-system": "KRas G12C (Homo sapiens, UniProt P01116, G12C)",
    "IC50": "0.1 to 1000 nM"
  },
  {
    "compound": "C=CC(=O)N1CCN(c2nc(OC[C@@H]3CCCN3CC(=O)N(C)C)nc3c2CCN(c2cccc4ccccc24)C3)CC1CC#N (some centres unmarked)",
    "target-or-system": "KRas G12C (Homo sapiens, UniProt P01116, G12C)",
    "IC50": "0.1 to 1000 nM"
  },
  {
    "compound": "C=CC(=O)N1CCN(c2nc(N3CC[C@H](N(C)C)C3)nc3c2CCN(c2cccc4ccccc24)C3)C[C@@H]1CC#N",
    "target-or-system": "KRas G12C (Homo sapiens, UniProt P01116, G12C)",
    "IC50": "0.1 to 1000 nM"
  },
  {
    "compound": "C=CC(=O)N1CCN(c2nc(OCCCN3C[C@H]4C[C@@H]3CO4)nc3c2CCN(c2ccccc2C(F)(F)F)C3)CC1CC#N (some centres unmarked) [Example 280]",
    "target-or-system": "KRas G12C (Homo sapiens, UniProt P01116, G12C)",
    "IC50": "0.1 to 1000 nM"
  },
  {
    "compound": "C=CC(=O)N1CCN(c2nc(OC[C@@H]3CCN(C)C3)nc3c2CCN(c2cccc4ccccc24)C3)C[C@@H]1CC#N",
    "target-or-system": "KRas G12C (Homo sapiens, UniProt P01116, G12C)",
    "IC50": "0.1 to 1000 nM"
  },
  {
    "compound": "C=C(F)C(=O)N1CCN(c2ncnc3c2CCN(c2cncc4cccc(Cl)c24)C3)C[C@@H]1CC#N",
    "target-or-system": "KRas G12C (Homo sapiens, UniProt P01116, G12C)",
    "IC50": "> 1000 nM"
  }
]

meta.source: patent US10689377B2
